Reference source: patent US12661410B2

- Measured Target: RET(KD: 658-1114 G810R) (Homo sapiens, UniProt P07949, G810R)
- Construct: 658-1114; expressed in transfected cells; host or cells: 293T.165 (293T cells, generated in-house)
- Sequence (P07949 658-1114 G810R): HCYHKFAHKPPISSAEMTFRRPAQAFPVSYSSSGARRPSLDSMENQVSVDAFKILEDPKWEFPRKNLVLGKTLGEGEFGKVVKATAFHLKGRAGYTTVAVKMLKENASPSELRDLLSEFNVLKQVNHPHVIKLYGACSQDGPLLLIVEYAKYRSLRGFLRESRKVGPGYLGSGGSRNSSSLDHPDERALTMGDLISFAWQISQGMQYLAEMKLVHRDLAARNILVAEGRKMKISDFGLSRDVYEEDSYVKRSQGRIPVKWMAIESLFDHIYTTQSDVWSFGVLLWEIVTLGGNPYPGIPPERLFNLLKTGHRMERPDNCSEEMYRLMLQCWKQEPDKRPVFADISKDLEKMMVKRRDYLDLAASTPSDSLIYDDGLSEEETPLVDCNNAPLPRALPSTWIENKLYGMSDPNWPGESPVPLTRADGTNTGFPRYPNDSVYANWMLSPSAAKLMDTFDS
- Procedure Text: HiBiT-Degradation, RET G810R degradation assay (Nano-Glo HiBiT Lytic), 293T.165 cells
- Format: cell-based
- Condition Parameters: 6.0 hours, % remaining protein, read-out: 293T.165 RET(KD: 658-1114 G810R) 6.0 hours (Emax)
Endpoint Name: Emax

Sample records with Emax:
- Compound: "CCC1(C(=O)NC2CCC2)CCN(c2ccc(-c3nc(-c4cnn([C@H]5CC[C@H](CN6CCN(c7ccc(N[C@H]8CCC(=O)NC8=O)cc7F)CC6)CC5)c4)cn4ncc(C#N)c34)cn2)CC1"
  Measured Target: "RET(KD: 658-1114 G810R) (Homo sapiens, UniProt P07949, G810R)"
  Result: "< 30%"
- Compound: "N#Cc1cnn2cc(-c3ccc(N4CCN(C(=O)CN5CCC(c6ccc(NC7CCC(=O)NC7=O)cc6)CC5)CC4)cc3)cc(-c3ccc(N4C[C@H]5CC[C@@H](C4)O5)nc3)c12 (stereo partly drawn)"
  Measured Target: "RET(KD: 658-1114 G810R) (Homo sapiens, UniProt P07949, G810R)"
  Result: "< 50%"

# evaluate next
# input Which Emax value belongs to CCC1(C(=O)NC(C)C)CCN(c2ccc(-c3cc(-c4cnn([C@H]5CC[C@H](N6CCC(c7ccc(NC8CCC(=O)NC8=O)cc7F)CC6)CC5)c4)cn4ncc(C#N)c34)cn2)CC1 (single isomer, unassigned) ?
# output < 30%
